target: tau (Homo sapiens); assay: MCE Phenols Library screening, tau biosensor cell seeding assay (AvZ); format: cell-based; details: puncta, replicate 1
Sequence (P10636 623-695 limits assumed): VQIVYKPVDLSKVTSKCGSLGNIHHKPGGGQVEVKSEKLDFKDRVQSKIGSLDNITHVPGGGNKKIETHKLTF

Compound: O=c1cc(-c2ccc(O)cc2)oc2cc(O[C@@H]3O[C@H](CO)[C@@H](O)[C@H](O)[C@H]3O[C@@H]3OC[C@](O)(CO)[C@H]3O)cc(O)c12 [Apiin]
Assay System: tau (Homo sapiens)
raw data 1: 40800.8
//
Compound: Cc1cc(=O)oc2cc(O)ccc12 [4-Methylumbelliferone]
Assay System: tau (Homo sapiens)
raw data 1: 15562.7
//
Compound: O=C(CCc1ccc(O)c(O)c1)NCCCNCCCCNCCCNC(=O)CCc1ccc(O)c(O)c1 [Kukoamine A]
Assay System: tau (Homo sapiens)
raw data 1: 24479.5
//
Compound: O=C(/C=C/c1ccc(O)cc1)c1c(O)cc(O)cc1O [Naringenin chalcone]
Assay System: tau (Homo sapiens)
raw data 1: 11089.3
//
Compound: COc1cc(O)c(C(C)=O)c(OC)c1 [Xanthoxylin]
Assay System: tau (Homo sapiens)
raw data 1: 31416.6
//
Compound: COc1cc(/C=C/COC(=O)/C=C/c2ccc(O)c(OC)c2)ccc1O [Coniferyl ferulate]
Assay System: tau (Homo sapiens)
raw data 1: 30768
//
Compound: O=c1cc(-c2ccc(O)c(O)c2)oc2cc(O[C@@H]3O[C@H](CO)[C@@H](O)[C@H](O)[C@H]3O)c(O)c(O)c12 [6-Hydroxyluteolin 7-glucoside]
Assay System: tau (Homo sapiens)
raw data 1: 24297.8
//
Compound: CC(=O)c1c(O)c(C)c(O)c2c1OC1=CC(=O)C(C(C)=O)C(=O)C12C (stereo not drawn) [Usnic acid]
Assay System: tau (Homo sapiens)
raw data 1: 43858.6
//
Compound: Cc1ccc(O)c(O)c1 [4-Methylcatechol]
Assay System: tau (Homo sapiens)
raw data 1: 7864.83
//
Compound: O=C(/C=C/c1ccc(O)c(O)c1)c1ccc(O)c(O)c1O [Okanin]
Assay System: tau (Homo sapiens)
raw data 1: 3755.83
//
Compound: C[C@@H]1O[C@@H](Oc2c(-c3ccc(O)cc3)oc3cc(O[C@@H]4O[C@@H](C)[C@H](O)[C@@H](O)[C@H]4O[C@@H]4O[C@H](CO)[C@@H](O)[C@H](O)[C@H]4O)cc(O)c3c2=O)[C@H](O)[C@H](O)[C@H]1O [Grosvenorine]
Assay System: tau (Homo sapiens)
raw data 1: 35445.3
//
Compound: O=c1c(O[C@@H]2O[C@H](CO)[C@@H](O)[C@H](O)[C@H]2O[C@@H]2O[C@H](CO)[C@@H](O)[C@H](O)[C@H]2O)c(-c2ccc(O)c(O)c2)oc2cc(O)cc(O)c12 [Baimaside]
Assay System: tau (Homo sapiens)
raw data 1: 40179
//
Compound: O=c1c2cc(O)c(O)cc2oc2c([C@@H]3O[C@H](CO)[C@@H](O)[C@H](O)[C@H]3O)c(O)cc(O)c12 [Isomangiferin]
Assay System: tau (Homo sapiens)
raw data 1: 30032.6
//
Compound: O=C(CCc1ccc(O)cc1)c1c(O)cc(O[C@@H]2O[C@H](CO)[C@@H](O)[C@H](O)[C@H]2O)cc1O [Trilobatin]
Assay System: tau (Homo sapiens)
raw data 1: 35522.1
//
Compound: O=c1cc(-c2ccccc2)oc2c(O)c(O)ccc12 [7,8-Dihydroxyflavone]
Assay System: tau (Homo sapiens)
raw data 1: 43302.3
